FYI, the data here is from patent US20240309059A1.

target desc: receptor binding domain (RBD) in the SARS-CoV-2 UK variant (B.1.1.7) (SARS-CoV-2 UK variant (B.1.1.7)), P0DTC2
experiment description: cell-based or functional assay
readout type: log10 of IC50 value, plaque reduction assay using the SARS-COV-2 UK variant (B.1.1.7) (log10 of the value in nM)
Record value = log10 of IC50 value, plaque reduction assay using the SARS-COV-2 UK variant (B.1.1.7) given in nM.

- binder: "DKEWILQKIYEIMRRLDEEGHGEASLRVSDLIYEFMKKD (modifications not checked) [Ce41]"
  numeric value: -0.17
- binder: "DKEWILYKIYEIMVRLDEEGHGEASLMVSDLIYEFMKRD (modifications not checked) [Ce149]"
  numeric value: -2.68
- binder: "DKEWILQKIYEIMRRLDEEGHGEASLRVSDLIYEFMKRD (modifications not checked) [Ce59]"
  numeric value: -0.70
- binder: "DKLWILQKIYEIMVRLDEEGHGEASLMVSDLIYEFMKRD (modifications not checked) [Ce172]"
  numeric value: -2.66

Moving on to the next binder.
Please look at this binder and report its log10 of IC50 value, plaque reduction assay using the SARS-COV-2 UK variant (B.1.1.7): DKEWILQKIYEIMRRLDEEGHAEASMRVSDLIYEFMKKD (modifications not checked) [Ce9]
1.11
